# Lookup of reported inhibition keyed by entry
- experimentalProtocol: clearance of mutant huntingtin inclusions, primary screen, imaging, HeLa Exon1htt(103Q)mCFP, confocal imaging (AID 853);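 also: cells exposed to compound for three days before fixation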
- runConditions: aggregate imaging, at 1.5 µM; hits give high values, zero = plate's median compound well
Screen size: about 47,000 compounds; about 200 (0.43%) were called active. Not shown: some 1% with an inconclusive outcome. For the sample, actives were picked, then their nearest neighbours and some compounds at random.
Give your result in % as a bare value.

INSERT INTO results (cpdsmiles, outcomemeasure, number) VALUES
  ('CCC(C)(C)n1nnnc1CN1CCN(c2nc3ccc(C)cc3cc2C#N)CC1', 'inhibition', 23.1);

Query: Supply measured inhibition of Clc1ccccc1-c1cc(COc2ccc3ccccc3c2)no1 in your reply.
Response: 11.8

Query: Supply measured inhibition of CCn1c(CNC(=O)c2ccccc2)nnc1SCC(=O)N1CCN(c2ccccc2)CC1 in your reply.
Response: 45.3

Query: Supply measured inhibition of Cc1ccccc1NC(=O)c1cnn(-c2ccccc2)c1NC(=O)c1ccco1 in your reply.
Response: -45.9

Query: Supply measured inhibition of Cc1ccc(-n2ccc(=O)c(C(=O)O)n2)cc1 in your reply.
Response: 0.4

Query: Supply measured inhibition of COc1cccc(N(CC(=O)NCCSc2ccccn2)S(C)(=O)=O)c1 in your reply.
Response: -38.8

Query: Supply measured inhibition of Cc1cccc(N2CCN(C(=O)CN(C)S(=O)(=O)c3ccc4c(c3)CCC(=O)N4)CC2)c1C in your reply.
Response: -18.5

Query: Supply measured inhibition of O=C(CN1CCOCC1)Nc1c(-c2ccccc2)c2cc(Br)ccc2[nH]c1=O in your reply.
Response: 15.7

Query: Supply measured inhibition of Cc1ccc2cc(CCNC(=O)c3ccc4c(c3)OCO4)c(=O)[nH]c2c1 in your reply.
Response: -20

Query: Supply measured inhibition of Cc1ccc2[nH]c3c(=O)n(Cc4ccccn4)cnc3c2c1 in your reply.
Response: 46.1

Source of measurements: PubChem BioAssay AID853
